Source of measurements: patent US20230159502A1

- Target under test: purified Z-AAT protein (Homo sapiens, UniProt P01009, E366K)
- Construct: Purified Z-AAT protein from human plasma
- Sequence (P01009 25-418 E366K): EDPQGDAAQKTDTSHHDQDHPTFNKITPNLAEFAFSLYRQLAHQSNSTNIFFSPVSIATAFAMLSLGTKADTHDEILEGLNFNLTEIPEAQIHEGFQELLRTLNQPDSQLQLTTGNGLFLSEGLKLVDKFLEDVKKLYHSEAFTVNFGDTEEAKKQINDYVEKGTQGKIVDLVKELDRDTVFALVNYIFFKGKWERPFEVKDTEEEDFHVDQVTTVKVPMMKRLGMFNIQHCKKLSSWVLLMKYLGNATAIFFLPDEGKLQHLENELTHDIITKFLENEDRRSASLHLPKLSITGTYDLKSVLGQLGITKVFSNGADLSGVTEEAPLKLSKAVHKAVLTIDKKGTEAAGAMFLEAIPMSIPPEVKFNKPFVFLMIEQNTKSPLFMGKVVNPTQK
- Experiment description: Biochemical Assay (Z-AAT Elastase Activity Assay)
- Measurement parameters: purified Z-AAT pre-incubated with compound 1 hour, then hNE; N.D. = activity not detected up to 30 μM
pIC50: −log10 of the molar value.
Reported pIC50 values are given for each entry in this list.

A selection of reference data follows.
{"columns": ["Compound", "pIC50"],
 "data": [
  ["Cc1cc(-n2c(C3CCOCC3)c(-c3ccc(C(=O)O)cc3)c3c(O)c(F)ccc32)ccc1F [Compound 34]", "> 5.70"],
  ["Cc1ccc2c(c1O)c(-c1ccc(C(=O)O)cc1)c(C1CCOCC1)n2-c1ccc(F)cc1 [Compound 105]", "< 4.52"],
  ["COc1cc(-c2c(C3(CC#N)CCC3)n(-c3ccc(F)c(C)c3)c3cc(F)c(F)c(O)c23)ccc1C(=O)O [Compound 454]", "> 5.70"]
]}

stdin: Given CP(C)(=O)c1c(-c2ccc(C(=O)O)cc2)c2c(O)cccc2n1-c1ccc(F)cc1 [Compound 178] , state its recorded pIC50.
stdout: < 4.52

stdin: Requested read-out: pIC50. Entry: CC1(C)CC(c2c(-c3ccc(C(=O)O)cc3)c3c(O)cccc3n2-c2ccc(F)cc2)CCO1 (stereo not shown) [Compound 399]
stdout: < 4.52

stdin: Would you kindly share the measured pIC50 for COCC(C)(C)c1c(-c2ccc(C(=O)O)cc2)c2c(NCCCCO)cc(F)cc2n1-c1ccc(F)cc1 [Compound 434] ?
stdout: < 4.52

stdin: For COc1cc(-n2c(C(C)(C)CCO)c(-c3ccc(C(=O)O)cc3)c3c(O)cc(F)cc32)ccc1F [Compound 503] , what is its reported pIC50?
stdout: < 5.30
